Recorded half-life for the following compounds
# PROTOCOL DESCRIPTION: Metabolic stability in human liver microsomes
# Format: in vitro ADME
# TEST SETTINGS: microsomes, 1 µM compound, 1 mg protein/mL, 37 °C, read-out: HLM t1/2
Where a SMILES comes first, the peptide text is derived from it. [ ]: non-standard residue; d: D form. dPhe(3-Me) = Cc1cccc(C[C@@H](N)C(=O)O)c1; dPhe(4-Me) = Cc1ccc(C[C@@H](N)C(=O)O)cc1; dPhe(4-F) = N[C@H](Cc1ccc(F)cc1)C(=O)O
OBSERVABLE: half-life (min)

INSERT INTO assay_data (compound, obs_value) VALUES
  ('O=C1N[C@H](Cc2ccc(F)cc2)C(=O)N[C@@H](Cc2ccccc2)C(=O)N2CCC[C@@H]2C(=O)N[C@H]1Cc1ccccc1 [Analog 7] (cyclo(F[dP]F[dPhe(4-F)]))', 2.3),
  ('Cc1cccc(C[C@H]2NC(=O)[C@H](Cc3ccccc3)NC(=O)[C@H]3CCCN3C(=O)[C@H](Cc3ccccc3)NC2=O)c1 [Analog 14, [D-Phe(m-Me)^4]CJ-15,208] (cyclo(F[dP]F[dPhe(3-Me)]))', 4.1),
  ('Cc1ccc(C[C@H]2NC(=O)[C@H](Cc3ccccc3)NC(=O)[C@H]3CCCN3C(=O)[C@H](Cc3ccccc3)NC2=O)cc1 [Analog 15] (cyclo(F[dP]F[dPhe(4-Me)]))', 5.4);

###

Measured Selectivity (MOR Ki/KOR Ki) accompanies every entry in the list below.
# SUBJECT OF TEST: hKOR (Homo sapiens, UniProt P41145)
# PROTOCOL DESCRIPTION: Competition binding, [3H]U69,593, hKOR-CHO membranes
# TEST SETTINGS: MOR Ki/KOR Ki
Where a SMILES comes first, the peptide text is derived from it. [ ]: non-standard residue; d: D form. dPhe(4-NO2) = N[C@H](Cc1ccc([N+](=O)[O-])cc1)C(=O)O; dTrp(1-Me) = Cn1cc(C[C@@H](N)C(=O)O)c2ccccc21; dPhe(3-Me) = Cc1cccc(C[C@@H](N)C(=O)O)c1; dPhe(2-Me) = Cc1ccccc1C[C@@H](N)C(=O)O
OBSERVABLE: Selectivity (MOR Ki/KOR Ki)

INSERT INTO assay_data (compound, obs_value) VALUES
  ('Cn1cc(C[C@H]2NC(=O)[C@H](Cc3ccccc3)NC(=O)[C@H]3CCCN3C(=O)[C@H](Cc3ccccc3)NC2=O)c2ccccc21 [Analog 2, [D-Trp(Me)]CJ-15,208] (cyclo(F[dP]F[dTrp(1-Me)]))', 2),
  ('Cc1cccc(C[C@H]2NC(=O)[C@H](Cc3ccccc3)NC(=O)[C@H]3CCCN3C(=O)[C@H](Cc3ccccc3)NC2=O)c1 [Analog 14, [D-Phe(m-Me)^4]CJ-15,208] (cyclo(F[dP]F[dPhe(3-Me)]))', 5),
  ('O=C1N[C@H](Cc2ccc([N+](=O)[O-])cc2)C(=O)N[C@@H](Cc2ccccc2)C(=O)N2CCC[C@@H]2C(=O)N[C@H]1Cc1ccccc1 [Analog 16] (cyclo(F[dP]F[dPhe(4-NO2)]))', 9),
  ('Cc1ccccc1C[C@H]1NC(=O)[C@H](Cc2ccccc2)NC(=O)[C@H]2CCCN2C(=O)[C@H](Cc2ccccc2)NC1=O [Analog 13] (cyclo(F[dP]F[dPhe(2-Me)]))', 2.5);
